COMPOUND: CC(=O)c1cc2c(cc1C)C(C)(C)C(C)CC2(C)C (stereo not given)
melting point (°C): 54.5

COMPOUND: Cc1cc(Cl)nc(Cl)n1
melting point (°C): 46.5

COMPOUND: C=CCNCC=C
melting point (°C): -88.4

COMPOUND: CCCCNC(=O)OCC(C)(CCC)COC(N)=O (stereo not given)
melting point (°C): 50

COMPOUND: O=C(O)c1ccccc1Br
melting point (°C): 150

COMPOUND: CCCC(=O)C1=C(O)C(C)(C)C(O)=C(Cc2c(OC)cc(O)c(C(=O)CCC)c2O)C1=O
melting point (°C): 150

COMPOUND: O=C1NCCN1
melting point (°C): 131

COMPOUND: COc1nc(NC(C)C)nc(NC(C)C)n1
melting point (°C): 91.5

COMPOUND: O=c1c(I)cn(CC(O)CO)cc1I (stereo not given)
melting point (°C): 161

COMPOUND: CC(C)N1C(=O)c2ccccc2NS1(=O)=O
melting point (°C): 138

COMPOUND: N#CCCOc1cccc2ccccc12
melting point (°C): 64

COMPOUND: OCC(Cc1ccccc1)c1ccccc1 (stereo not given)
melting point (°C): 51

COMPOUND: CC(CCc1ccccc1)NC(C)C(O)c1ccc(O)cc1 (stereo not given)
melting point (°C): 112

COMPOUND: NS(=O)(=O)c1cc2c(s1)SCCC2=O
melting point (°C): 222

COMPOUND: Clc1cc(Cl)cc(C2(CC(Cl)(Cl)Cl)CO2)c1 (stereo not given)
melting point (°C): 42.8

COMPOUND: O=[N+]([O-])c1ccc2c(c1)Cc1cc([N+](=O)[O-])ccc1-2
melting point (°C): 334

COMPOUND: Oc1cc(Cl)cc(Cl)c1
melting point (°C): 68

COMPOUND: CC(C)COC(=O)c1ccccc1O
melting point (°C): 5.9

COMPOUND: c1ccc(-c2cnc(-c3ccccc3)o2)cc1
melting point (°C): 74

COMPOUND: O=C(O)c1cccc(C(F)(F)F)c1
melting point (°C): 106

COMPOUND: CCOC(=O)CCCCCCCCCCCCCCCCC(=O)OCC
melting point (°C): 54.5

COMPOUND: C/C(=C/c1ccccc1)CC(N)=O
melting point (°C): 133

COMPOUND: O=[N+]([O-])c1ccsc1
melting point (°C): 78.5

COMPOUND: O=[N+]([O-])c1ccc(Oc2ccc(C(F)(F)F)cc2Cl)cc1
melting point (°C): 68

COMPOUND: O=S(=O)(Cl)C(Cl)(Cl)Cl
melting point (°C): 140
